Recorded composite z-score by entry
ASSAYED SYSTEM: Albumin (Bos taurus) (UniProt P02769)
Sequence (P02769 whole entry, looked up): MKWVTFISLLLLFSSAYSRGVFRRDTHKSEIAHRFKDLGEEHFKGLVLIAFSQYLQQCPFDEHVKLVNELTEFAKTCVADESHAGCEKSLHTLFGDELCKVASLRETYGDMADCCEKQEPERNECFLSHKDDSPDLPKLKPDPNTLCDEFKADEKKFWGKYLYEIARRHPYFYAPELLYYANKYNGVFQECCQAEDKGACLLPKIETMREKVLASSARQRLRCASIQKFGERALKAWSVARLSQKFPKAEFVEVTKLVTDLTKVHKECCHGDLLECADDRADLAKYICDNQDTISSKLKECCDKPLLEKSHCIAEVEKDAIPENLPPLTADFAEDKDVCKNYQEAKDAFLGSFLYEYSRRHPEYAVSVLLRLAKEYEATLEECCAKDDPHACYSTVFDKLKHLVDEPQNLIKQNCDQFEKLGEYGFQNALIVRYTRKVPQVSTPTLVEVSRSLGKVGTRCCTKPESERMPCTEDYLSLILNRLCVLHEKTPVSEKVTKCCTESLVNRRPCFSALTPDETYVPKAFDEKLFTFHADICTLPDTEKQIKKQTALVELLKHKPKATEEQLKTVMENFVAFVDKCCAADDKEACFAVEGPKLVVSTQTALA
EXPERIMENTAL PROTOCOL: bovine serum albumin binders on microarray, profiling panel, artefact control for SMM control protein annotation, biochemical, small-molecule microarray, Alexa647 label, 635/667 nm fluorescence (AID 1118);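 further: score merges 667 nm emission intensity and signal-to-noise per printed compound spot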
RECORDED CONDITIONS: BSA-A647 binding, fluorescence 635 nm, higher = more signal

>  <COMPOUND>
O=C1[C@H]2[C@H]3[C@H](O)[C@H](O)CC(=NO[C@@H]4O[C@H](CO)[C@@H](O)[C@H](O)[C@H]4O)[C@H]3CC[C@H]2C(=O)N1C1CCCCC1

>  <composite z-score>
0.785

$$$$

Entry under review: CCOC(=O)[C@H](Cc1ccccc1)NC(=O)CCC1CC(OC(=O)NCCc2ccc(F)cc2)CC2(CCCC(COC(=O)NCC(c3ccccc3)c3ccccc3)O2)O1 (some centres undefined) . Reported composite z-score?
0.641

Entry under review: `O=C1[C@H]2[C@H]3[C@H](O)[C@H](O)CC(=NOC[C@@H](O)COCc4ccco4)[C@@H]3CC[C@H]2C(=O)N1c1ccc(F)cc1F` . Reported composite z-score?
-0.126

====

Recorded composite z-score by entry
EXPERIMENTAL PROTOCOL: small-molecule microarray binders of probe aLefty2, primary screen, biochemical, biotinylated probe, 635/667 nm fluorescence (AID 1094);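 further: score merges spot fluorescence near 667 nm with spot signal-to-noise ratio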
RECORDED CONDITIONS: higher = more signal
No unit in the answer, only the number.

Example results:
>  <COMPOUND>
COCCOC(=O)N1C(=O)[C@@]2(c3cc(C#CC4(O)CCCCCC4)ccc31)[C@H](c1ccc(OCCO)cc1)N1[C@H](c3ccccc3)[C@H](c3ccccc3)OC(=O)[C@H]1[C@@H]2C(=O)NC[C@H](O)c1ccccc1

>  <composite z-score>
-0.0212

$$$$
>  <COMPOUND>
C[C@@H]1C=CCC(=O)OC[C@H](C)C(=O)N[C@@H](C)C(=O)OC1

>  <composite z-score>
-0.293

$$$$
>  <COMPOUND>
COCCNC(=O)OCC1CCCC2(CC(OC(=O)NCCc3ccc(F)cc3)CC(CCC(=O)N[C@@H](C)C(=O)OC)O2)O1 (some centres undefined)

>  <composite z-score>
-0.0845

$$$$

Then there is this compound:
Entry under review: `COc1ccc([Si](C)(C)[C@H]2[C@H](CCO)O[C@@]3(C(=O)N(Cc4cccc(NC(=O)[C@H](C)O)c4)c4ccccc43)[C@@H]2C)cc1` . Reported composite z-score?
-0.0664

====

ASSAYED SYSTEM: Follistatin-related protein 3 (Homo sapiens) (UniProt O95633)
Sequence (O95633 whole entry, looked up): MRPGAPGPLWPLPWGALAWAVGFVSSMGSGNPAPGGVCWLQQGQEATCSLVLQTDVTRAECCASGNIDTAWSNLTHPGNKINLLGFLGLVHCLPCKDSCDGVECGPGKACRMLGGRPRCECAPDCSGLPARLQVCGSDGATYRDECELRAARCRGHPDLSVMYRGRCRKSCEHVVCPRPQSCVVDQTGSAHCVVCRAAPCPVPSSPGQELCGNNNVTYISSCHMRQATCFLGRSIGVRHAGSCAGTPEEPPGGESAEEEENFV
EXPERIMENTAL PROTOCOL: FSTL3 binders on small-molecule microarrays, primary screen, biochemical, small-molecule microarray, 635 nm fluorescence (AID 1105);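 further: score merges emission near 667 nm and signal to noise per printed spot across three slides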
RECORDED CONDITIONS: FSTL3 binding, higher = more signal
Recorded composite z-score by entry

>  <COMPOUND>
C[C@@H]1C=CCC(=O)OC[C@H](C)C(=O)OC[C@H]2O[C@H]1C=C[C@H]2O

>  <MEAS VALUE>
0.808

$$$$
>  <COMPOUND>
COc1cccc([C@H]2Oc3ccc(OC)cc3C(=NOC(C)CN3CCCc4nc(C)c(C)cc43)[C@@H]2O)c1 (stereo partly drawn)

>  <MEAS VALUE>
0.0288

$$$$
>  <COMPOUND>
C=CC[C@@H]1C=C[C@H](ON=C2c3cc(OC)ccc3O[C@H](c3cccc(OC)c3)[C@H]2O)[C@@H](CO)O1

>  <MEAS VALUE>
0.0069

$$$$
>  <COMPOUND>
CC(=O)OC[C@H]1O[C@H](C#CCCCc2ccccc2)C=C[C@@H]1OC(C)=O

>  <MEAS VALUE>
0.556

$$$$
>  <COMPOUND>
CC1CC/C=C\[C@H]2OC34C=CCN(C(C)C)C(=O)[C@H]3N(CCCO)C(=O)[C@@H]4C2C(=O)O1 (stereo partly drawn)

>  <MEAS VALUE>
-1.21

$$$$

Which measured composite z-score belongs to `C=CCN1C(=O)[C@]2(O[C@H](CCn3cc(CCO)nn3)[C@@H]([Si](C)(C)c3ccc(OC)cc3)[C@@H]2C)c2cc(N3CCOC3=O)ccc21` , tested on Follistatin-related protein 3 (Homo sapiens) (UniProt O95633)?
-0.609

Which measured composite z-score belongs to `[N-]=[N+]=Nc1ccccc1C[C@@]1(C(N)=O)N=C(c2ccc(OCCCO)cc2)O[C@@H]1c1ccccc1` , tested on Follistatin-related protein 3 (Homo sapiens) (UniProt O95633)?
-0.0838

Which measured composite z-score belongs to `CN(C)CCCNC(=O)[C@@H]1c2ccccc2C(=O)N(Cc2cc(F)cc(C(F)(F)F)c2)[C@H]1c1ccc(CO)cc1` , tested on Follistatin-related protein 3 (Homo sapiens) (UniProt O95633)?
-1.1

====

EXPERIMENTAL PROTOCOL: basal RPMI8226 mitochondrial membrane potential changes, profiling panel, cell-based, JC-1 fluorescence, 24 h, 100 nL compound (AID 1169); further: test concentration not given here
RECORDED CONDITIONS: RPMI8226 myeloma, JC-1 mitochondrial potential fluorescence, higher = more signal
VALUE KIND: z-score
No unit in the answer, only the number.

>  <COMPOUND>
O=C1C[C@@H](O)[C@@H](O)[C@@H]2[C@@H]3C(=O)N(C4CCCCC4)C(=O)[C@@H]3CC[C@H]12

>  <z-score>
0.0892

$$$$
>  <COMPOUND>
Cc1cc(C)c(-c2cc([C@H](C)ON=C3[C@H]4CCn5c(=O)n(-c6ccccc6)c(=O)n5[C@H]4[C@H](O)[C@@H]4O[C@H]34)on2)c(C)c1

>  <z-score>
-1.24

$$$$
>  <COMPOUND>
CC(C)CON=C1C[C@@H](O)[C@@H](O)[C@@H]2[C@@H]3C(=O)N(C[C@@H]4CCCO4)C(=O)[C@@H]3CC[C@H]12

>  <z-score>
0.347

$$$$

Then there is this compound:
Entry under review: COc1ccc(O[C@H]2C=C[C@@H](c3ccccc3)O[C@@H]2COC(=O)CCC(C)=NOC(C)CN2CCCCc3nc(C)c(C)cc32)cc1 (some centres undefined) . Reported z-score?
-0.508

====

EXPERIMENTAL PROTOCOL: E. coli acrAB mutant growth effects, primary screen, E. coli filamentation inducers, strain DRC39, OD650, 24 h (AID 1178);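 further: growth measured as culture turbidity by optical density at 650 nm; test concentration not given here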
RECORDED CONDITIONS: higher = more signal, called active from +8 up or from −8 down
Recorded z-score by entry
No unit in the answer, only the number.

Example results:
>  <COMPOUND>
CCOc1ccc(N2C(=O)/C(=C/C=C/c3ccccc3OC)S(=O)(=O)C2c2cccc([N+](=O)[O-])c2)cc1 (stereo unspecified)

>  <z-score>
0.777

$$$$
>  <COMPOUND>
CCOC(=O)CCN1C(=O)[C@H]2[C@H]3[C@H](O)[C@H](O)CC(=NOCc4ccccc4)[C@@H]3CC[C@H]2C1=O

>  <z-score>
-0.852

$$$$
>  <COMPOUND>
COCC(=C=CC[C@@H](O)c1ccccc1OCCO)CCO

>  <z-score>
1.63

$$$$
>  <COMPOUND>
C=CCOC(=O)[C@H]1[C@@H]2C(=O)O[C@@H](c3ccccc3)[C@@H](c3ccccc3)N2[C@@H](c2ccc(OCCOC(=O)[C@H]3C[C@H]4C(=O)N5CCC[C@H]5C(=O)N4[C@H]3c3cccc(OCCO)c3)cc2)[C@]12C(=O)Nc1ccc(I)cc12

>  <z-score>
-0.277

$$$$
>  <COMPOUND>
CCc1cc2c(nc1CC)CCN(CCC(C)=NOC(C)CN1CCCc3nc(C)c(C)cc31)C2 (stereo unspecified)

>  <z-score>
0.278

$$$$

Entry under review: `COC(=O)[C@@]1(Cc2ccccc2)[C@H]2c3cc(C(=O)N4CCCC4)n(Cc4ccccn4)c3C[C@H]2CN1C(=O)c1ccccc1` . Reported z-score?
-0.452

Entry under review: `CC(C)(C)N1C(=O)[C@H]2[C@H]3[C@H](O)[C@H](O)CC(=NOCc4ccccc4)[C@@H]3CC[C@H]2C1=O` . Reported z-score?
-0.474

Entry under review: `CC(=O)OC[C@H]1O[C@H](CCON=C(C)CCC(=O)OC[C@H]2O[C@H](C#Cc3ccccc3)C=C[C@@H]2Oc2ccc(C)cc2)C=C[C@@H]1OC(C)=O` . Reported z-score?
0.674

Entry under review: `C[C@H]1Cc2c(-c3ccccc3)nc3c(c2CO1)CN(CCOc1ccccc1)CC3` . Reported z-score?
1.67

Entry under review: `CC(C)[C@H](NC(=O)OC(C)(C)C)[C@@H](O)CC(=O)OC(C)(C)C` . Reported z-score?
-1.69

Entry under review: `CO[C@@H]1COC(=O)[C@H](C)NC(=O)[C@@H](C)COC(=O)CCC[C@H]1C` . Reported z-score?
0.277

The origin of these recorded values is PubChem BioAssay.
